# assayProcedure: Drug concentration in hippocampus of Sprague-Dawley rat at 15 mg/kg, IG measured after 0.5 hrs
# Assay type: ADME, organism-based
# assaySetup: po, read-out: Drug uptake
experimentalEndpoint: concentration at 0.5 h (ng/mL)
Report only the number, with the unit ng/mL understood.

Query :: Using the record for O=c1ccoc(/C=C/c2ccc(O)c(O)c2)c1O , report its concentration at 0.5 h.
Result :: 5.4

====

# assayProcedure: Ratio of drug concentration in hippocampus to plasma of Sprague-Dawley rat at 15 mg/kg, IG measured after 1 hrs
# Format: ADME, organism-based
# assaySetup: po
experimentalEndpoint: Kp at 1 h
Format: numeric value only, no unit, no commentary.

Query :: Using the record for O=c1ccoc(/C=C/c2ccc(O)c(O)c2)c1O , report its Kp at 1 h.
Result :: 5.04

====

# assayProcedure: AUC(0 to t) in Sprague-Dawley rat at 15 mg/kg, IG
# Type: ADME, organism-based
# Design: dose 15 mg/kg, route ig
# assaySetup: in vivo, po
experimentalEndpoint: AUC(0-t) (ng·h/mL)
Report only the number, with the unit ng·h/mL understood.

Query :: Using the record for O=c1ccoc(/C=C/c2ccc(O)c(O)c2)c1O , report its AUC(0-t).
Result :: 24.4

====

# studyTarget: Amyloid-beta precursor protein (Homo sapiens, UniProt P05067)
# Sequence (P05067 whole entry): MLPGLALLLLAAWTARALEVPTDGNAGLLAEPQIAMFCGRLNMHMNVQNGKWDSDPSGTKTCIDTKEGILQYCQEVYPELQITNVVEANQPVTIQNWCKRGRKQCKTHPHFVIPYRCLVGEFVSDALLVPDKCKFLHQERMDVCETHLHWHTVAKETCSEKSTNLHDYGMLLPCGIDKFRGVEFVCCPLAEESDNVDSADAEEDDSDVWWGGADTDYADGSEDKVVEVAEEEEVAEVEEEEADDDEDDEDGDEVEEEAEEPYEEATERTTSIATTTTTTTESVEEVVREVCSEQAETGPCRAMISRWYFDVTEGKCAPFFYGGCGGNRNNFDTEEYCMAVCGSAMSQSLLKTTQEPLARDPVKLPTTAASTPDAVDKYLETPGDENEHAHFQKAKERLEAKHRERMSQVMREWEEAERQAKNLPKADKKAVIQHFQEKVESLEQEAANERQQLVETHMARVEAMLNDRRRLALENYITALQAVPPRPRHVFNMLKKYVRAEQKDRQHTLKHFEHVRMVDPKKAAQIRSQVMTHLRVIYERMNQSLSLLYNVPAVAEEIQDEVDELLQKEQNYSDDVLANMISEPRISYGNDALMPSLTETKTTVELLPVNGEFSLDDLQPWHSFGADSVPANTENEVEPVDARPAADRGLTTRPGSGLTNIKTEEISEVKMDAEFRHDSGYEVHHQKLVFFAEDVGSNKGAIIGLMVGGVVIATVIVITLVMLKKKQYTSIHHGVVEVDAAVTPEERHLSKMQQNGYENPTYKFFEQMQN
# assayProcedure: Inhibition of amyloid beta (1 to 42) (unknown origin) self aggregation assessed as disaggregation relative to control
# Set-up: concentration or dose not given beside the values
# assaySetup: concentration not given here
experimentalEndpoint: inhibition (%)
Report only the number, with the unit % understood.

- smiles: "COC(=O)c1ccc(/C=C/c2occc(=O)c2O)cc1"
  experimentalEndpoint: "inhibition"
  valueObserved: 27.6
- smiles: "O=c1ccoc(/C=C/c2ccccc2)c1O"
  experimentalEndpoint: "inhibition"
  valueObserved: 8.21
- smiles: "O=c1ccoc(/C=C/c2ccc3ccccc3c2)c1O"
  experimentalEndpoint: "inhibition"
  valueObserved: 45.9
- smiles: "O=c1ccoc(/C=C/c2ccc([N+](=O)[O-])cc2)c1O"
  experimentalEndpoint: "inhibition"
  valueObserved: 62.8
- smiles: "O=c1ccoc(/C=C/c2ccc(F)c(O)c2)c1O"
  experimentalEndpoint: "inhibition"
  valueObserved: 24
- smiles: "O=c1ccoc(/C=C/c2ccc(O)c(O)c2)c1O"
  experimentalEndpoint: "inhibition"
  valueObserved: 90.4
- smiles: "O=c1ccoc(/C=C/c2ccc(C(F)(F)F)cc2)c1O"
  experimentalEndpoint: "inhibition"
  valueObserved: 25.9
- smiles: "O=c1ccoc(/C=C/c2ccc(N3CCSCC3)cc2)c1O"
  experimentalEndpoint: "inhibition"
  valueObserved: 62.8
- smiles: "O=c1ccoc(/C=C/c2ccc(N3CCOCC3)cc2)c1O"
  experimentalEndpoint: "inhibition"
  valueObserved: 65.8

Query :: Give Amyloid-beta precursor protein (Homo sapiens, UniProt P05067) inhibition for O=c1ccoc(/C=C/c2ccc(Cl)cc2)c1O
Result :: 26.9

====

# assayProcedure: Ratio of drug concentration in hippocampus to plasma of Sprague-Dawley rat at 15 mg/kg, IG measured after 0.25 hrs
# Type: ADME, organism-based
# assaySetup: po
experimentalEndpoint: Kp at 0.25 h
Format: numeric value only, no unit, no commentary.

Query :: Using the record for O=c1ccoc(/C=C/c2ccc(O)c(O)c2)c1O , report its Kp at 0.25 h.
Result :: 0.5

====

# studyTarget: Amyloid-beta precursor protein (Homo sapiens, UniProt P05067)
# assayProcedure: Inhibition of Fe3+ induced of amyloid beta (1 to 42) aggregation (unknown origin)
experimentalEndpoint: pIC50
Expect pIC50 as a plain number equal to -log10 of the molar concentration.

Query :: Using the record for O=c1ccoc(/C=C/c2ccc(O)c(O)c2)c1O , report its pIC50.
Result :: 5.01

====

# studyTarget: UniProtKB P05067
# assayProcedure: Inhibition of amyloid beta (1 to 42) (unknown origin) self aggregation at 50 uM relative to control
// Not fulfilled strictly below 30% in inhibition; Fulfilled otherwise

Query :: Quick check, inhibition >= 30%? COC(=O)c1ccc(/C=C/c2occc(=O)c2O)cc1
Result :: Fulfilled

Query :: Another molecule: COc1ccc(/C=C/c2occc(=O)c2O)cc1
Result :: Fulfilled

Query :: Another molecule: COc1ccc(/C=C/c2occc(=O)c2O)cc1OC
Result :: Not fulfilled

Query :: Another molecule: O=c1ccoc(/C=C/c2ccc(O)c(F)c2)c1O
Result :: Fulfilled

Query :: Another molecule: O=c1ccoc(/C=C/c2ccc([N+](=O)[O-])cc2)c1O
Result :: Fulfilled

Query :: Another molecule: O=c1ccoc(/C=C/c2ccc(N3CCSCC3)cc2)c1O
Result :: Fulfilled

====

# assayProcedure: Drug concentration in plasma of Sprague-Dawley rat at 15 mg/kg, IG measured after 0.25 hrs
# Type: ADME, organism-based
# assaySetup: po
experimentalEndpoint: concentration at 0.25 h (ng/mL)
Report only the number, with the unit ng/mL understood.

Query :: Using the record for O=c1ccoc(/C=C/c2ccc(O)c(O)c2)c1O , report its concentration at 0.25 h.
Result :: 5.32

====

# assayProcedure: Ratio of drug concentration in hippocampus to plasma of Sprague-Dawley rat at 15 mg/kg, IG measured after 0.5 hrs
# Assay type: ADME, organism-based
# assaySetup: po
experimentalEndpoint: Kp at 0.5 h
Format: numeric value only, no unit, no commentary.

Query :: Using the record for O=c1ccoc(/C=C/c2ccc(O)c(O)c2)c1O , report its Kp at 0.5 h.
Result :: 2.27

====

# assayProcedure: Drug concentration in plasma of Sprague-Dawley rat at 15 mg/kg, IG measured after 0.167 hrs
# Format: ADME, organism-based
# assaySetup: po
experimentalEndpoint: concentration at 0.167 h
Include the unit after the number when you answer.

Query :: Using the record for O=c1ccoc(/C=C/c2ccc(O)c(O)c2)c1O , report its concentration at 0.167 h.
Result :: 22.2 ng/mL

====

# studyTarget: Amyloid-beta precursor protein (Homo sapiens)
# assayProcedure: Inhibition of amyloid beta (1 to 42) (unknown origin) self aggregation
pIC50 overview
Expect pIC50 as a plain number equal to -log10 of the molar concentration.

Query :: Using the record for O=c1ccoc(/C=C/c2ccc(N3CCCCC3)cc2)c1O , report its pIC50.
Result :: 4.48

Query :: Another molecule: CN(C)c1ccc(/C=C/c2occc(=O)c2O)cc1
Result :: 4.33

Query :: Another molecule: O=c1ccoc(/C=C/c2ccc([N+](=O)[O-])cc2)c1O
Result :: 4.42

Query :: Another molecule: O=c1ccoc(/C=C/c2ccc(O)c(O)c2)c1O
Result :: 4.95

Query :: Another molecule: O=c1ccoc(/C=C/c2ccc(N3CCSCC3)cc2)c1O
Result :: 4.33

Query :: Another molecule: COc1ccc(/C=C/c2occc(=O)c2O)cc1O
Result :: 4.36

Query :: Another molecule: O=c1ccoc(/C=C/c2ccc(N3CCOCC3)cc2)c1O
Result :: 4.31

====

# assayProcedure: Cmax in Sprague-Dawley rat at 15 mg/kg, IG
# Type: ADME, organism-based
# Set-up: dose 15 mg/kg, route ig
# assaySetup: in vivo, po
experimentalEndpoint: Cmax (µg/mL)
Report only the number, with the unit µg/mL understood.

Query :: Using the record for O=c1ccoc(/C=C/c2ccc(O)c(O)c2)c1O , report its Cmax.
Result :: 0.0144

====

# studyTarget: Amyloid-beta precursor protein (Homo sapiens, UniProt P05067)
# assayProcedure: Inhibition of amyloid beta (1 to 42) (unknown origin) self aggregation assessed as disaggregation relative to control
# Set-up: concentration or dose not given beside the values
# assaySetup: concentration not given here
experimentalEndpoint: inhibition
Include the unit after the number when you answer.

Here is how some compounds turned out for inhibition.
- smiles: "O=c1ccoc(/C=C/c2cccc(F)c2)c1O"
  inhibition: "18.5%"
- smiles: "COc1ccc(/C=C/c2occc(=O)c2O)cc1OC"
  inhibition: "20.6%"
- smiles: "O=c1ccoc(/C=C/c2ccc(-c3ccccc3)cc2)c1O"
  inhibition: "46.7%"
- smiles: "Cc1ccc(/C=C/c2occc(=O)c2O)cc1"
  inhibition: "15.1%"
- smiles: "N#Cc1ccc(/C=C/c2occc(=O)c2O)cc1"
  inhibition: "17%"
- smiles: "COc1ccccc1/C=C/c1occc(=O)c1O"
  inhibition: "30.9%"

Could you now look at the following compound, please?
Query :: Using the record for O=c1ccoc(/C=C/c2ccc(O)cc2)c1O , report its inhibition.
Result :: 29.6%

====

# assayProcedure: Tmax in Sprague-Dawley rat at 15 mg/kg, IG
# Format: ADME, organism-based
# assaySetup: in vivo, po
experimentalEndpoint: Tmax
Include the unit after the number when you answer.

Query :: Using the record for O=c1ccoc(/C=C/c2ccc(O)c(O)c2)c1O , report its Tmax.
Result :: 10.2 min

====

# studyTarget: Amyloid-beta precursor protein (Homo sapiens)
# assayProcedure: Inhibition of amyloid beta (1 to 42) (unknown origin) self aggregation at 50 uM relative to control
experimentalEndpoint: inhibition (%)
Report only the number, with the unit % understood.

Query :: Using the record for COc1ccc(/C=C/c2occc(=O)c2O)cc1O , report its inhibition.
Result :: 57.4

Query :: Another compound: O=c1ccoc(/C=C/c2ccc(Cl)cc2)c1O
Result :: 30.4

Query :: Another compound: O=c1ccoc(/C=C/c2ccc(N3CCOCC3)cc2)c1O
Result :: 50.4

Query :: Another compound: O=c1ccoc(/C=C/c2cccc(Cl)c2)c1O
Result :: 23.2

Query :: Another compound: CC(C)(C)c1ccc(/C=C/c2occc(=O)c2O)cc1
Result :: 37.7

Query :: Another compound: O=c1ccoc(/C=C/c2ccccc2)c1O
Result :: 7.59

Query :: Another compound: O=c1ccoc(/C=C/c2ccc(O)c(O)c2)c1O
Result :: 80.3

Query :: Another compound: Oc1ccc(/C=C/c2cc(O)cc(O)c2)cc1 [RESVERATROL]
Result :: 73.2
